- measurement-target: endogenously expressed human MSR1 on PMA-treated THP-1 cells (human) (UniProt P21757)
- Sequence (P21757 whole entry): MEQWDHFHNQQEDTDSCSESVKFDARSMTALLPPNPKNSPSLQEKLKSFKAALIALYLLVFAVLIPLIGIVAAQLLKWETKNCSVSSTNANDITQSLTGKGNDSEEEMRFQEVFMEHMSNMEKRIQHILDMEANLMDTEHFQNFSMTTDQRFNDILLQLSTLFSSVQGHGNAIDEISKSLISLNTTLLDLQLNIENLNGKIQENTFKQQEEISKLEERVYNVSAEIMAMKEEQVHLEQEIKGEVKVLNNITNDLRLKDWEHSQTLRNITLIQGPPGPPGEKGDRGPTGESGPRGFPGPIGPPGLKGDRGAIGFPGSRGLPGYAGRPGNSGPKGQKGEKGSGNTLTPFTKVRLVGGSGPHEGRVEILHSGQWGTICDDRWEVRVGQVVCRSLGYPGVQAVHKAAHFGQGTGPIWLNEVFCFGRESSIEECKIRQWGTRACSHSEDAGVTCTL
- procedure-details: ECL cell binding, PMA-treated THP-1 cells, 11 nM
Below, each of the binders is paired with its reported ratio of binding signal (RLU) to isotype control value.
Express the result in fold but write the number alone.

binder	uom	numeric-readout
H1H27739P-N297Q (antibody, human IgG1, V domains shown) VH: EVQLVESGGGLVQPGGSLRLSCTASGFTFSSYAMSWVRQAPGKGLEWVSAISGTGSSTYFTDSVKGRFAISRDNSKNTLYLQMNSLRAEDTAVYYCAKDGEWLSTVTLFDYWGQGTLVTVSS VL: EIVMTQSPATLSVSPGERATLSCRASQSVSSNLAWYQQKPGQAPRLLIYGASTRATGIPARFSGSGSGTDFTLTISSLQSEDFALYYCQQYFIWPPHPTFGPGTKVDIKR	fold	9
H1H21227N (antibody, human IgG1, V domains shown) VH: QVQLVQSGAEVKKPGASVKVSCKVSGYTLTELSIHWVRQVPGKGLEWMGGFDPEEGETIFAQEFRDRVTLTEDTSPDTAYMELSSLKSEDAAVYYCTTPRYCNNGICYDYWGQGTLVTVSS VL: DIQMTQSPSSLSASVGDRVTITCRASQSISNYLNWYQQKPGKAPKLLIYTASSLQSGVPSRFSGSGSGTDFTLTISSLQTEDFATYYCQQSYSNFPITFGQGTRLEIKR	fold	7

--- query ---
Dear colleague, I am looking for the recorded ratio of binding signal (RLU) to isotype control of the following binder: H1H21234N-N297Q (antibody, human IgG1, V domains shown) VH: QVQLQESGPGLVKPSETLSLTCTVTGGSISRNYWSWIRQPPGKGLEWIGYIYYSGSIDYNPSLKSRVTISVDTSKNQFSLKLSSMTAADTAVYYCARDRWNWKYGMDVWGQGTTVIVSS VL: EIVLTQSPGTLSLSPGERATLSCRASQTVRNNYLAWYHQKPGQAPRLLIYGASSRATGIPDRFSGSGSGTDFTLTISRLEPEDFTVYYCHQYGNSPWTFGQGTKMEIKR
25
